- Test system: HCC1143
- EXPERIMENTAL_PROTOCOL: normalised response (% of control), CellTiter-Glo; higher = more viable cells (100 = DMSO, 0 = benzethonium chloride kill control)
- EXPERIMENTAL_SETUP: incubation time: 72 h
Exercise: state measured normalised response for each of the compounds provided.
Numbers only, in %.

Worked cases, answers included:
>  <COMPOUND>
CN1CCc2c(c3ccccc3n2Cc2ccc(C(=O)NO)cc2)C1 [Tubastatin A] (10 nM)

>  <TARGET_ENTITY>
HCC1143

>  <READOUT_TYPE>
normalised response

>  <VALUE_OBSERVED>
95.2

$$$$
>  <COMPOUND>
CN1CCN(c2nc(C3=C(c4c[nH]c5ccccc45)C(=O)NC3=O)c3ccccc3n2)CC1 [Sotrastaurin] (10 nM)

>  <TARGET_ENTITY>
HCC1143

>  <READOUT_TYPE>
normalised response

>  <VALUE_OBSERVED>
96.1

$$$$
>  <COMPOUND>
CCc1cnn2c(NCc3ccc[n+]([O-])c3)cc(N3CCCC[C@H]3CCO)nc12 [Dinaciclib] (1 nM)

>  <TARGET_ENTITY>
HCC1143

>  <READOUT_TYPE>
normalised response

>  <VALUE_OBSERVED>
107

$$$$

Dear reader, for each entry below, please note its normalised response.
1. O=NN(CCCl)C(=O)NC1CCCCC1 [Lomustine] (1 nM)
2. NC1(c2ccc(-c3nc4ccn5c(=O)[nH]nc5c4cc3-c3ccccc3)cc2)CCC1 [MK-2206] (100 nM)
3. CC(C)C[C@H](NC(=O)[C@H](CCc1ccccc1)NC(=O)CN1CCOCC1)C(=O)N[C@@H](Cc1ccccc1)C(=O)N[C@@H](CC(C)C)C(=O)[C@@]1(C)CO1 [Carfilzomib] (0.1 nM)

1. 105
2. 98.2
3. 104

Dear reader, for each entry below, please note its normalised response.
1. CC(C)(C)Cn1c(N)nc2ccc(-c3[nH]c(C(C)(C)C)nc3-c3ccc(F)cc3)nc21 (10 nM)
2. CC(C)C(=O)Nc1ccc([N+](=O)[O-])c(C(F)(F)F)c1 [Flutamide] (1 nM)
3. O=C(O)CC[C@H]1CC[C@@](c2cc(F)ccc2F)(S(=O)(=O)c2ccc(Cl)cc2)CC1 [MK-0752] (100 nM)
4. COc1cc2c(N3CCN(C(=O)Nc4ccc(OC(C)C)cc4)CC3)ncnc2cc1OCCCN1CCCCC1 [Tandutinib] (1 nM)
5. Cn1cc(C[C@@H](N)C(=O)O)c2ccccc21 [1-methyl-D-tryptophan] (500 nM)

[104, 93.2, 108, 103, 94.8]

Dear reader, for each entry below, please note its normalised response.
1. Nc1nc(Cl)nc2c1ncn2[C@@H]1O[C@H](CO)[C@@H](O)[C@@H]1F [Clofarabine] (10 nM)
2. NC(=O)c1cccc2cn(-c3ccc([C@@H]4CCCNC4)cc3)nc12 [MK-4827] (1000 nM)
3. CC[C@H](CC#N)OC(=O)N[C@@H](C)c1cccc(NC(=O)Nc2ccc(-c3cnco3)c(OC)c2)c1 [AVN944] (10 nM)
4. C[C@@H]1C[C@H]2[C@@H]3CCC4=CC(=O)C=C[C@]4(C)[C@@]3(F)[C@@H](O)C[C@]2(C)[C@@]1(O)C(=O)CO [Dexamethasone] (1 nM)

1. 102
2. 104
3. 97.3
4. 96.2
